The reported numbers originate from patent US20200369765A1.

Answer each item with its documented EC50.
- targetEntity: T1, Human Siglec-9 (human, UniProt Q9Y336 18-463)
- T1 construct: On transfected CHO cells; also on YTS and KHYG-1 transfectants, primary NK cells and moDC; also called huSiglec-9; CD329
- T1 sequence (Q9Y336 18-463): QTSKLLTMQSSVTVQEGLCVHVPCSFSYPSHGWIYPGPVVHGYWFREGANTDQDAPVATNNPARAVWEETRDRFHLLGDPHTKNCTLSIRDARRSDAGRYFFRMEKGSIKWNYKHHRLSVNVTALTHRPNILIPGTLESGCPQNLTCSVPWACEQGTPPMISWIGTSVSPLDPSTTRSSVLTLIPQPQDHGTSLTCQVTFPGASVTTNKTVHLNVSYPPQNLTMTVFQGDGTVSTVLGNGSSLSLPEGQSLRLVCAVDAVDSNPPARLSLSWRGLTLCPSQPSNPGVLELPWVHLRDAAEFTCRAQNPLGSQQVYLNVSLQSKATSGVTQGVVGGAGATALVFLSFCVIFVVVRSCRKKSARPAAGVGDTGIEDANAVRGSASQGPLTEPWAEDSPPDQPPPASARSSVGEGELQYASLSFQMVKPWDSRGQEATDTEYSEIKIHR
- procedureDetails: flow cytometry, CHO Siglec-9 cells, mean n = 2
One number for each entry, in µg/mL.

mAbD (antibody, human IgG1, V domains shown) VH: QIQLVQSGPELKKPGETVKISCKASGYTFTDYSMHWVKQAPGKGLKWMGWIITETGEPTYADDFRGRFAFSLETSANTAYLQINNLKNEDTATYFCARDFDGYWGQGTTLTVSS VL: DILMTQSPASLSASVGETVTITCRASENIYSYLAWYQQKRGKSPQFLVYNAKTLTEGVPSRFRGSGSGTQFSLKINSLQPEDFGTYYCQHHYGFPWTFGGGTKLEIK | 0.036
mAbA H1L0 (antibody, V domains shown, constant region not specified) VH: QVQLVQSGAEVKKPGSSVKVSCKASGGTFSSYWMHWVRQAPGQGLEWMGEINPSNGHTNYNEKFESRVTITADESTSTAYMELSSLRSEDTAVYYCANGVESYDFDDALDYWGQGTTVTVSS VL: DIQMTQSPSSLSASVGDRVTITCRASQDINNYLNWYQQKPGKAPKLLIYYTSRLHSGVPSRFSGSGSGTDFTFTISSLQPEDIATYYCQQGNTLPFTFGGGTKVEIK | 0.045
mAbA H0L1 (antibody, V domains shown, constant region not specified) VH: QVQLVQSGAEVKKPGSSVKVSCKASGGTFSSYWMHWVRQAPGQGLEWMGEINPSNGHTNYNEKFESRVTITADESTSTAYMELSSLRSEDTAVYYCARGVESYDFDDALDYWGQGTTVTVSS VL: DIQMTQSPSSLSASVGDRVTITCRASQDINNYLNWYQQKPGKAPKLLIYYTSRLHSGVPSRFSGSGSGTDYTFTISSLQPEDIATYYCQQGNTLPFTFGGGTKVEIK | 0.013

# batch: return EC50 for each of the 2 binders below
1. mAbA (antibody, human IgG1, V domains shown) VH: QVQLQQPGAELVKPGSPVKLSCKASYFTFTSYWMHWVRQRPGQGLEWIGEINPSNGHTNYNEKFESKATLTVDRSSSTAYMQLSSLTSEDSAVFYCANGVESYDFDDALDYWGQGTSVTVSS VL: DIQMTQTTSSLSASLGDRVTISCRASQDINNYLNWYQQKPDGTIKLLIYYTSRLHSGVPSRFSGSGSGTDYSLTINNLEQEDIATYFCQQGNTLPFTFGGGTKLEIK
2. mAbA H3L0 (antibody, V domains shown, constant region not specified) VH: QVQLVQSGAEVKKPGSSVKVSCKASYFTFSSYWMHWVRQAPGQGLEWMGEINPSNGHTNYNEKFESRVTITADRSTSTAYMELSSLRSEDTAVYYCANGVESYDFDDALDYWGQGTTVTVSS VL: DIQMTQSPSSLSASVGDRVTITCRASQDINNYLNWYQQKPGKAPKLLIYYTSRLHSGVPSRFSGSGSGTDFTFTISSLQPEDIATYYCQQGNTLPFTFGGGTKVEIK

1: 0.03; 2: 0.12
